assay: self-splicing fitness, log relative to wild type (ln ratio); higher = more splicing; Tetrahymena group I intron in knt gene, E. coli kanamycin selection, DiMSum; sequences stand for … in CUCUCU…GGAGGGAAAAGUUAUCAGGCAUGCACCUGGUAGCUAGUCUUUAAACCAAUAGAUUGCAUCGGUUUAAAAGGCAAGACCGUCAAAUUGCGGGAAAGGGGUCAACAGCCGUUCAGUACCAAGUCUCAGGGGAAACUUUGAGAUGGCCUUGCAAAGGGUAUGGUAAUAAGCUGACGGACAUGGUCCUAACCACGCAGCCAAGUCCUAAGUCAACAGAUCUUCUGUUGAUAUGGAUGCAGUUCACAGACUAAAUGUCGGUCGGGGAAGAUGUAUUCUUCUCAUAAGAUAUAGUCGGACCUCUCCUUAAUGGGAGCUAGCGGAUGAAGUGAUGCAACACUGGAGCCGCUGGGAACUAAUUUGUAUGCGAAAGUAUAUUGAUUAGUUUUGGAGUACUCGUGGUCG; settings: 37 °C;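 note: selection with 25 µg/mL kanamycin versus none on LB agar overnight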
Returns criterion met if the recorded self-splicing fitness (ln) is greater than or equal to -0.8, and criterion not met otherwise.

Study these solved cases before continuing.
INSERT INTO measurements (polymer_sequence, cat) VALUES
  ('CUGUAGCAAUAUUACGGCUC', 'criterion not met'),
  ('UGGAAGCAAUAUUACGAUUA', 'criterion met'),
  ('AGAUAGCAAUAUUACGUACG', 'criterion met'),
  ('CGGUAGCAAUAUUACGAGCG', 'criterion met'),
  ('GCUCAGCAAUAUUACGGAGC', 'criterion not met'),
  ('GCGCAGCAAUAUUACGAGAA', 'criterion not met'),
  ('GCAUAGCAAUAUUACGCAUC', 'criterion not met'),
  ('CAGAAGCAAUAUUACGAUCC', 'criterion not met');

Req: Confirm if self-splicing fitness (ln) reported for the sequence CCGGAGCAAUAUUACGGGUU is -0.8 or above.
Resp: criterion not met

Req: Confirm if self-splicing fitness (ln) reported for the sequence CGAUAGCAAUAUUACGGUUC is -0.8 or above.
Resp: criterion not met

Req: Confirm if self-splicing fitness (ln) reported for the sequence GCCAAGCAAUAUUACGAGUG is -0.8 or above.
Resp: criterion not met

====

Entries annotated with measured self-splicing fitness (ln)
experiment: self-splicing fitness, log relative to wild type (ln ratio); higher = more splicing; Tetrahymena group I intron in knt gene, E. coli kanamycin selection, DiMSum; sequences stand for … in CUCUCU…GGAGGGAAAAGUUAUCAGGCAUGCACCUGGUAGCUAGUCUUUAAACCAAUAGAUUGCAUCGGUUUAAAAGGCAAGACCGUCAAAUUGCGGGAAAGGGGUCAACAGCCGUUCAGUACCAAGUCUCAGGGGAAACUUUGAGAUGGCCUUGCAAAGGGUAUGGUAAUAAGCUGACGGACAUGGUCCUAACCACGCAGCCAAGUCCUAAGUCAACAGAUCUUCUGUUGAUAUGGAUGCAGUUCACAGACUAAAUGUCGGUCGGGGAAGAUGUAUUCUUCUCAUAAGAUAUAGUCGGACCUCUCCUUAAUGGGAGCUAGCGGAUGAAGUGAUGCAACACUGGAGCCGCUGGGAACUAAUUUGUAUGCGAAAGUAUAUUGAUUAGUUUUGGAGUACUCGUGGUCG; conditions: 37 °C
Just the number, please, no unit attached.

INSERT INTO results (polymer_sequence, observed_property, numeric_result) VALUES
  ('UAAGAGCAAUAUUACGCCCU', 'self-splicing fitness (ln)', -2.01),
  ('GCAAAGCAAUAUUACGUAUG', 'self-splicing fitness (ln)', -2.71),
  ('ACCAAGCAAUAUUACGACCC', 'self-splicing fitness (ln)', -0.181),
  ('CCGCAGCAAUAUUACGAGGU', 'self-splicing fitness (ln)', -1.84),
  ('CCGCAGCAAUAUUACGGCCA', 'self-splicing fitness (ln)', -2.51),
  ('UAUGAGCAAUAUUACGAUGU', 'self-splicing fitness (ln)', -3.62);

# evaluate next
Req: For CACUAGCAAUAUUACGACGG , what is its reported self-splicing fitness (ln)?
Resp: -0.117

====

assay: self-splicing fitness, log relative to wild type (ln ratio); higher = more splicing; Tetrahymena group I intron in knt gene, E. coli kanamycin selection, DiMSum; sequences stand for … in CUCUCU…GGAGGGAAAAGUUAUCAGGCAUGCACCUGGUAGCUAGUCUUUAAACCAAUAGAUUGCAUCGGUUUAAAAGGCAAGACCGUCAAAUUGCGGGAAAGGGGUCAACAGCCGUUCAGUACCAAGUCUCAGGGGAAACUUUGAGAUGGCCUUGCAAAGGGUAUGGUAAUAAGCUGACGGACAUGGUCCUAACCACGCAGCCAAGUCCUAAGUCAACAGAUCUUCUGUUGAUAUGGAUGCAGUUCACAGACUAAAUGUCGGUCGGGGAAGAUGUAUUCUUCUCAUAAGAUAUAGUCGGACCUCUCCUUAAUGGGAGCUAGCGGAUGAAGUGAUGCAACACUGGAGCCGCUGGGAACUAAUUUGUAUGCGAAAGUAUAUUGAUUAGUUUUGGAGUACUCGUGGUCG; settings: 37 °C
Observed Property: self-splicing fitness (ln)
Just the number, please, no unit attached.

INSERT INTO measurements (polymer_sequence, observed_property, numeric_result) VALUES
  ('CAAAAGCAAUAUUACGGUAU', 'self-splicing fitness (ln)', -2.67);

# evaluate next
Req: For AGGAAGCAAUAUUACGCUCA , what is its reported self-splicing fitness (ln)?
Resp: -0.339

====

experiment: self-splicing fitness, log relative to wild type (ln ratio); higher = more splicing; Tetrahymena group I intron in knt gene, E. coli kanamycin selection, DiMSum; sequences stand for … in CUCUCU…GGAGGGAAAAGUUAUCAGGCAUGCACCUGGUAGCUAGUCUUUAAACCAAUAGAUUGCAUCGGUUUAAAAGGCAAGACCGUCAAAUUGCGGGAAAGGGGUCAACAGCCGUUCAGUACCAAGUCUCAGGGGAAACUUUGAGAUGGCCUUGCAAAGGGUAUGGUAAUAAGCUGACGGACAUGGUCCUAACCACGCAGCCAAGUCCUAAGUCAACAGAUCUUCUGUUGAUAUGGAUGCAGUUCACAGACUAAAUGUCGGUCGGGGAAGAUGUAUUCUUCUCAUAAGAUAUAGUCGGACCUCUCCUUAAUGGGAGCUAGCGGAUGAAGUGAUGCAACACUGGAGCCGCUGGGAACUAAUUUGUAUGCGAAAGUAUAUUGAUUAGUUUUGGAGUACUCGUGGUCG; settings: 37 °C
Returns MET if the recorded self-splicing fitness (ln) is greater than or equal to -0.9, and NOT MET otherwise.

Study these solved cases before continuing.
INSERT INTO measurements (polymer_sequence, cat) VALUES
  ('UAUUAGCAAUAUUACGCCCA', 'MET'),
  ('UUGGAGCAAUAUUACGGGAA', 'MET'),
  ('UAUCAGCAAUAUUACGCCCA', 'MET');

Req: Confirm if self-splicing fitness (ln) reported for the sequence GCUUAGCAAUAUUACGACUU is -0.9 or above.
Resp: MET

Req: Confirm if self-splicing fitness (ln) reported for the sequence CUUAAGCAAUAUUACGUUAG is -0.9 or above.
Resp: NOT MET

Req: Confirm if self-splicing fitness (ln) reported for the sequence UAAUAGCAAUAUUACGGUCG is -0.9 or above.
Resp: MET

====

test: self-splicing fitness, log relative to wild type (ln ratio); higher = more splicing; Tetrahymena group I intron in knt gene, E. coli kanamycin selection, DiMSum; sequences stand for … in CUCUCU…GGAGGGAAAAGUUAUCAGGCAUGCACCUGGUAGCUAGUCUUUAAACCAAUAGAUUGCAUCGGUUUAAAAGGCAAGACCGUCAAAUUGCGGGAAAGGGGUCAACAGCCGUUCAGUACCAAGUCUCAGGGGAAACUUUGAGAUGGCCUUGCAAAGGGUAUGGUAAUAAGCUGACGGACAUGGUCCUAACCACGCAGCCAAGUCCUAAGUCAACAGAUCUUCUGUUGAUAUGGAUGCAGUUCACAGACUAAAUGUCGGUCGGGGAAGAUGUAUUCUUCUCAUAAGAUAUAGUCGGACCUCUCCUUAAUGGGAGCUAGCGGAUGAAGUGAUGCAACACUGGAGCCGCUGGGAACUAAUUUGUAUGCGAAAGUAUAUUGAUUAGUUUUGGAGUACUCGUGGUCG; conditions: 30 °C
Entries annotated with measured self-splicing fitness (ln)
Just the number, please, no unit attached.

Example sequences with recorded self-splicing fitness (ln):
INSERT INTO measurements (polymer_sequence, numeric_result) VALUES
  ('AAUGAGCAAUAUUACGGCGG', -4.11),
  ('GCCCAGCAAUAUUACGACGC', -0.00307);

Req: For GGUUAGCAAUAUUACGGCAG , what is its reported self-splicing fitness (ln)?
Resp: -1.83

Req: For AGAUAGCAAUAUUACGAGGC , what is its reported self-splicing fitness (ln)?
Resp: -0.902

Req: For GAAGAGCAAUAUUACGGUCG , what is its reported self-splicing fitness (ln)?
Resp: -3.24

Req: For UCGAAGCAAUAUUACGGCGC , what is its reported self-splicing fitness (ln)?
Resp: -3.11

Req: For CAUCAGCAAUAUUACGUACU , what is its reported self-splicing fitness (ln)?
Resp: -2.68

Req: For AUACAGCAAUAUUACGCGCA , what is its reported self-splicing fitness (ln)?
Resp: -0.623

Req: For AGGCAGCAAUAUUACGCAUC , what is its reported self-splicing fitness (ln)?
Resp: -3.99

Req: For GUGAAGCAAUAUUACGAUAG , what is its reported self-splicing fitness (ln)?
Resp: -2.11

Req: For GGACAGCAAUAUUACGGUAU , what is its reported self-splicing fitness (ln)?
Resp: -0.41

Req: For AAACAGCAAUAUUACGUAUU , what is its reported self-splicing fitness (ln)?
Resp: -2.17

Req: For AGUCAGCAAUAUUACGAGCG , what is its reported self-splicing fitness (ln)?
Resp: -0.195

Req: For CUUCAGCAAUAUUACGUCCG , what is its reported self-splicing fitness (ln)?
Resp: -0.583

Req: For UAAUAGCAAUAUUACGGGGA , what is its reported self-splicing fitness (ln)?
Resp: -1.91

Data credit: the supplement of paper PMC7877785
